Cited source: ChEMBL document CHEMBL1132078

SYSTEM_NAME: Sodium-dependent serotonin transporter
METHOD_DESCRIPTION: Inhibition of [3H]citalopram binding to serotonin transporter (SERT) of cynomolgus monkey caudate-putamen
Readings of IC50 for the listed compounds
API: value field is a number in nM; no unit string.

1) COC(=O)C1C(c2ccc(Cl)c(Cl)c2)CC2CCC1N2C (centres undefined); 27.6

Next up:
Input line: // IC50 lookup, key: COC(=O)C1C2CCC(CC1c1ccc(Cl)c(Cl)c1)O2 (stereo in doubt; 7b (R))
Output line: 30.3

====

log10 of IC50 values for the compounds below.
SYSTEM_NAME: Sodium-dependent dopamine transporter (Macaca fascicularis, UniProt Q9GJT6)
Sequence (Q9GJT6 whole entry): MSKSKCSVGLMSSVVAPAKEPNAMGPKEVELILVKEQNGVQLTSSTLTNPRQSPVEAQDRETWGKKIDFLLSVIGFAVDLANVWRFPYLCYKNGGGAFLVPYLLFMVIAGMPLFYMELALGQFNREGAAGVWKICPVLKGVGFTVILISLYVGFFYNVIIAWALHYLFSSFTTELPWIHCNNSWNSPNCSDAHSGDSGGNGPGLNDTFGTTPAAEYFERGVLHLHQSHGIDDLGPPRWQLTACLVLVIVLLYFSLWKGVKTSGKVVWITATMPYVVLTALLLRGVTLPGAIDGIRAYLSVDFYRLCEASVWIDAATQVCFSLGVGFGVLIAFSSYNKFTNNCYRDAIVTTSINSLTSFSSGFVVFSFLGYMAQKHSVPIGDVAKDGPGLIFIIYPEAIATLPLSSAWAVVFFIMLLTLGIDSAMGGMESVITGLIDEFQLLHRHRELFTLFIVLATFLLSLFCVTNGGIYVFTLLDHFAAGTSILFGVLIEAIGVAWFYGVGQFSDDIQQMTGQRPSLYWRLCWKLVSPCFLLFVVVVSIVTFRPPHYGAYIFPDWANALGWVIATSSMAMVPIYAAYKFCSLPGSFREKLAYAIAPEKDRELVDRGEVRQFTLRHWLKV
Values are log10 of IC50 in nM.

Below: 5 compounds and their reported log10 of IC50.
1. COC(=O)C1C2CCC(C2)CC1c1ccc(Cl)c(Cl)c1 (stereo in doubt; 6a (R/S)); 0.98
2. COC(=O)C1=C(c2ccc(Cl)c(Cl)c2)CC2CCC1O2 (stereo in doubt; 5b (R/S)); 1.11
3. COC(=O)C1C2CCC(C2)CC1c1ccc(Cl)c(Cl)c1 (racemic); 1.16
4. COC(=O)C1C2CCC(CC1c1ccc(Cl)c(Cl)c1)O2 (stereo in doubt; 7b (R)); 0.36
5. COC(=O)C1C2CCC(CC1c1ccc(Cl)c(Cl)c1)O2 (racemic; form 1); 0.53

Input line: Notebook: pull reported log10 of IC50 for Sodium-dependent dopamine transporter (Macaca fascicularis, UniProt Q9GJT6), entry COC(=O)C1=C(c2ccc(Cl)c(Cl)c2)CC2CCC1O2 (stereo in doubt; 5b (R))
Output line: 0.62

Input line: What about this compound? COC(=O)C1C(c2ccc(Cl)c(Cl)c2)CC2CCC1N2C (stereo unspecified)
Output line: 0.04

Input line: Also COC(=O)C1C2CCC(CC1c1ccc(Cl)c(Cl)c1)O2 (racemic; form 2) ?
Output line: 0.49

Input line: How about this compound: COC(=O)C1C2CCC(CC1c1ccc(Cl)c(Cl)c1)N2 (stereo unspecified)
Output line: -0.15

Input line: // same read-out, input: COC(=O)C1=C(c2ccc(Cl)c(Cl)c2)CC2CCC1C2 (racemic)
Output line: 0.85

Input line: And then COC(=O)C1=C(c2ccc(Cl)c(Cl)c2)CC2CCC1N2C (stereo unspecified) , what is it?
Output line: 0.08
